Entries and their IC50 values follow.
Biological target: IGF-1R (Homo sapiens)
Construct: expressed in transfected cells
Sequence (P08069 31-1367): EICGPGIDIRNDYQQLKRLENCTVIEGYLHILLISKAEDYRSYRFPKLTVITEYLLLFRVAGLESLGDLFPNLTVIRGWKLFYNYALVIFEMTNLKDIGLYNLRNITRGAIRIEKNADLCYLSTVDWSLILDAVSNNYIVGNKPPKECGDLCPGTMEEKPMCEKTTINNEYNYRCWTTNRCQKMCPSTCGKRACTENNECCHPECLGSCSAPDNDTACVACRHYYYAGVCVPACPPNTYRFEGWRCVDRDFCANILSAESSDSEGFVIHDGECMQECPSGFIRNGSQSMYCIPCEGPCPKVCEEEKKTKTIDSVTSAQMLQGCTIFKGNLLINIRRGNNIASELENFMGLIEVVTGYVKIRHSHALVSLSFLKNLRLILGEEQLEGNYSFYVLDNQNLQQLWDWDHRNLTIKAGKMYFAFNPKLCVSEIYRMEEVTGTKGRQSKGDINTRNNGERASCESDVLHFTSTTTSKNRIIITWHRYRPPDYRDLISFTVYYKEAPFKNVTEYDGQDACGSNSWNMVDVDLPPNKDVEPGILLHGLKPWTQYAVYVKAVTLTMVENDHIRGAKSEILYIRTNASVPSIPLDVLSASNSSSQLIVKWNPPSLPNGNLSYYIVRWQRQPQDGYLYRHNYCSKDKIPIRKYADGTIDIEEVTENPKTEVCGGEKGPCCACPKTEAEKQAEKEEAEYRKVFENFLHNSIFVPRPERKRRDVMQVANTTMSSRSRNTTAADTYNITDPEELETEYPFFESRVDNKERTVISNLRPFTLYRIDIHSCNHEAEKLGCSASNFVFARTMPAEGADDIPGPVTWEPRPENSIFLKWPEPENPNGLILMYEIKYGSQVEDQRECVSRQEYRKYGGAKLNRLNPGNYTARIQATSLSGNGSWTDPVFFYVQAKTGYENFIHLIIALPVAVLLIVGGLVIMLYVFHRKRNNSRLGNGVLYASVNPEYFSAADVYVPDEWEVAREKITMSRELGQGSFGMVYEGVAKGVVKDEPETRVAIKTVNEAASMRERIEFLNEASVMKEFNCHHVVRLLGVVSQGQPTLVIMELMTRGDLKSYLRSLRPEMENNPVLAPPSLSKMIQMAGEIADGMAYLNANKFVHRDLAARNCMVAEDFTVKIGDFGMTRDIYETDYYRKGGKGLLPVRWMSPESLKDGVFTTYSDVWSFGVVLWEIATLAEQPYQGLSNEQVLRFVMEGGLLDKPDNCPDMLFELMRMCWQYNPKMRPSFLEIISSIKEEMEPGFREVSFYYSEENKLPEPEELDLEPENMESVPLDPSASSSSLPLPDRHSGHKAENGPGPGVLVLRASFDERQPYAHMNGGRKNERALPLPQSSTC
Test: Example B-1: IGF-1R Assay (PC3 cells stimulated with IGF1, AlphaLISA on cell lysates)
Assay type: cell-based
Details: compound two hours, IGF1 200 ng/mL for 30 min, read-out: IC50, Biological Activity against IGF-1R (Table B1)
Procedure: 50K PC3 cells were seeded on day 1 in 50 μL of media in 96-well plate and incubated overnight at 37° C., 5% CO2. On day 2, all cells were expected to be at 80-90% confluency. […] The media was removed and replaced by 50 μL of 1× lysis buffer from the AlphaLISA kit (with 1× of cOmplete™ protease inhibitor). […] The plates were read in EnVision reader using standard AlphaLISA settings. Compound activity was analyzed using CBIS data analysis suite (Cheminnovation, CA). […]

[
  {
    "molecule": "CN1C(=O)C2(CC2)c2ccc(N3C(=O)N(Cc4ccnc(N)c4)C(C)(C)C3=O)cc21 [Compound 402]",
    "reported.result": "2 to 10 µM"
  },
  {
    "molecule": "CC(C)Nc1cc(CN2C(=O)N(c3ccc(SC(F)(F)F)cc3)C(=O)[C@@H]2CO)ccn1 [Compound 298]",
    "reported.result": "> 10 µM"
  }
]

Entry CC(C)(C)c1ccc(N2C(=O)N(Cc3ccnc(NC4CCOCC4)c3)C(C)(C)C2=O)cc1 [Compound 266] ; IC50 = ≤ 0.5 µM
